experimental context: in ethyl acetate, 328.17 K
value type: solubility (mole fraction)
Keep it simple and answer with nothing but the number.

Looking up c1nc[nH]n1 , I found its solubility (mole fraction) recorded as 0.0884

* * *

experimental context: in ethyl acetate, 303.18 K
value type: solubility (mole fraction)
Keep it simple and answer with nothing but the number.

Looking up c1nc[nH]n1 , I found its solubility (mole fraction) recorded as 0.0457

* * *

experimental context: in n-propanol, 333.18 K
value type: solubility (mole fraction)
Keep it simple and answer with nothing but the number.

Looking up c1nc[nH]n1 , I found its solubility (mole fraction) recorded as 0.344

* * *

experimental context: in ethyl formate, 298.24 K
value type: solubility (mole fraction)

Looking up c1nc[nH]n1 , I found its solubility (mole fraction) recorded as 0.0331
